B1: library; a variant is named by its letters at N, in order (parent)
chain: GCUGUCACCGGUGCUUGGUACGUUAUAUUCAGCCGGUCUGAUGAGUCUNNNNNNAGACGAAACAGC

variants of: B1; assay: normalized RNA/DNA level with ligand (relative to sTRSVctl = 100) (log10 (% of sTRSVctl)); HEK293T overexpressing SLC46A1; ligand concentration (+) RNA-Seq: 6 mM; higher = less ribozyme self-cleavage, higher mRNA level; conditions: with (6R,S)-folinic acid; ligand present: yes
readoutType: normalized RNA/DNA level with ligand (log10)
Reply briefly: the number, and no unit.

mutationName: AUCCAG
readoutValue: 2
//
mutationName: UUCGAG
readoutValue: 1.97

Quick note, normalized RNA/DNA level with ligand (log10) for UUGUCC landed at 2.05

Reported normalized RNA/DNA level with ligand (log10) for GGGGUC was 2.04

For reference, reported normalized RNA/DNA level with ligand (log10) for GAACCA stands at 2.01

Entry GGCCUA ; normalized RNA/DNA level with ligand (log10) = 2.01

So for CGUUGC , the logged normalized RNA/DNA level with ligand (log10) turned out to be 2.02

Notebook: UCUGGU , normalized RNA/DNA level with ligand (log10) read as 2.02

UACGUC yielded normalized RNA/DNA level with ligand (log10) of 2.06

Please fill in: normalized RNA/DNA level with ligand (log10) reported for UCAGCU = 2.03

The reported value for GGUGUU in terms of normalized RNA/DNA level with ligand (log10) is 2.02

// CCCAUU : normalized RNA/DNA level with ligand (log10) value = 2.08

Form field normalized RNA/DNA level with ligand (log10), entry ACGAAA : 2

Value source: the supplement of paper PMC6757056
